Target: IDH1-R132H recombinant protein (Homo sapiens (Human), UniProt O75874, R132H)
Sequence (O75874 whole entry R132H): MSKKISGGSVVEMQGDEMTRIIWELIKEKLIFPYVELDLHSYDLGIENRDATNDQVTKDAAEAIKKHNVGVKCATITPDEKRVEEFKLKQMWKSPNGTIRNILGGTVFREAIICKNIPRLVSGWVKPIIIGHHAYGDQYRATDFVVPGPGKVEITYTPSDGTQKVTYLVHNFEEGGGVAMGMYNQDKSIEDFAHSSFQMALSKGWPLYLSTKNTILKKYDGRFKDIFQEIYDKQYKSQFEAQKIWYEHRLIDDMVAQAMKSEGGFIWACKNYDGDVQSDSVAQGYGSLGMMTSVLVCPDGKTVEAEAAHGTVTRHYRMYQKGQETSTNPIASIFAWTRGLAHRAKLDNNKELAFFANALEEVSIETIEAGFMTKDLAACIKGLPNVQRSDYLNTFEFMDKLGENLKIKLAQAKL
Test: IDH1-R132H enzymatic assay (inhibition of NADPH consumption, diaphorase/resazurin readout)
Settings: read-out: Enzyme IDH1 R132H IC50 (Range)
Recorded metric: IC50

Form: Entry = "CC(C)CN(C(=O)C1CC1)c1ccnc(N[C@@H](C)c2cc3cc(Cl)ccc3[nH]c2=O)n1" | System = IDH1-R132H recombinant protein (Homo sapiens (Human), UniProt O75874, R132H) | IC50 = ____
100 to 1000 nM

Give recorded IC50 with IDH1-R132H recombinant protein (Homo sapiens (Human), UniProt O75874, R132H) for the following compound: "C[C@H](Nc1nccc(N(C)C(=O)N(C)C)n1)c1cc2cc(Cl)ccc2[nH]c1=O"
1000 to 10000 nM

Report IC50 for "CC(=O)Nc1ccnc(N[C@@H](C)c2cc3cc(Cl)cnc3[nH]c2=O)n1" tested on IDH1-R132H recombinant protein (Homo sapiens (Human), UniProt O75874, R132H).
< 100 nM

Notebook: pull reported IC50 for IDH1-R132H recombinant protein (Homo sapiens (Human), UniProt O75874, R132H), entry "COc1nc(N[C@@H](C)c2cc3cc(Cl)cnc3[nH]c2=O)ncc1C#N"
< 100 nM

Value wanted: IC50 (IDH1-R132H recombinant protein (Homo sapiens (Human), UniProt O75874, R132H)) of entry "CC(C)CC(=O)N(c1ccnc(N[C@@H](C)c2cc3cc(Cl)ccc3[nH]c2=O)n1)C1CC1"
100 to 1000 nM

Form entry - test system: IDH1-R132H recombinant protein (Homo sapiens (Human), UniProt O75874, R132H); read-out: IC50; compound: "CC(C)CN(c1ccnc(N[C@@H](C)c2cc3cc(Cl)ccc3[nH]c2=O)n1)S(C)(=O)=O"
< 100 nM

For IDH1-R132H recombinant protein (Homo sapiens (Human), UniProt O75874, R132H), provide IC50 of "CC(=O)Nc1ccnc(N[C@@H](C)c2cc3cc(Cl)cc(F)c3[nH]c2=O)n1" please.
< 100 nM

Taken from patent US10280150B2.
